- protocol: Survival of human H209 cells at 10 uM under deem light after 96 hrs by MTT assay relative to control
- Format: functional
- experimental-conditions: NCI-H209, 96 h, read-out: Survival
experimental-endpoint: viability at 10 µM (%)

molecule | test-value
CC1=C(CCC(=O)O)c2cc3nc(cc4[nH]c(cc5[nH]c(cc1n2)c(C)c5C(C)O)c(C)c4C(C)O)C(C)=C3CCC(=O)O (centres undefined) [HAEMAPORPHYRIN] | 99.5
C=Cc1c(C)c2cc3nc(c(CC(=O)OC)c4[nH]c(cc5nc(cc1[nH]2)C(C)=C5CC)c(C)c4C(=O)NCCO)C(CCC(=O)OC)C3C (centres undefined) [PHEOPHORBIDE A ETHANOLAMIDE] | 106
C=Cc1c(C)c2cc3nc(c4c5[nH]c(cc6nc(cc1[nH]2)C(C)=C6CC)c(C)c5C(=O)[C@@H]4C(=O)OC)[C@@H](CCC(=O)OC)[C@@H]3C [METHYL PHEOPHORBIDE A] | 91.7
COc1cccc2c1C(=O)c1c(O)c3c(c(O)c1C2=O)C[C@@](O)(C(=O)CO)C[C@@H]3O[C@H]1C[C@H](N)[C@H](O)[C@H](C)O1 [DOXORUBICIN] | 23.1
